# tgt: N-HSP90α WT (Homo sapiens)
# assay: SPR kinetics, two-state reaction model, amine-coupled protein
# Type: binding
readout: pKd
Scale note: pKd = -log10(concentration in M).

Could you tell me which pKd is on file for O=c1cc(-c2ccc(O)c(O)c2)oc2cc(O[C@@H]3O[C@H](CO)[C@@H](O)[C@H](O)[C@H]3O)cc(O)c12 [compound 5] ?
5.22

Values compiled from paper PMC11040708.
